Molecular target: T1, human IL-23R (human, UniProt Q5VWK5 24-353, limits assumed)
T1 construct: also called huIL-23R; human interleukin-23R
T1 sequence: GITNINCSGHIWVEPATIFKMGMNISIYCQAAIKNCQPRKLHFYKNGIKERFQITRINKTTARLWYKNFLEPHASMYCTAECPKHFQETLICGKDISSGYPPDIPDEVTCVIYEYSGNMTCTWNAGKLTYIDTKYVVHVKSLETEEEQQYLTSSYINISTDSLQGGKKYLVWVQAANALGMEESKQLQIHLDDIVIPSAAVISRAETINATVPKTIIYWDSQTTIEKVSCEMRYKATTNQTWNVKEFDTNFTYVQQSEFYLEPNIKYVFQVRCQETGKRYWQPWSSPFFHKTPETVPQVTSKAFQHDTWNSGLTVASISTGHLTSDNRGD
Test: BIAcore SPR, antibody immobilised
log10(Kd) overview
readout_name: log10(Kd) (log10 of the value in nM)

[
  {
    "binder": "hu8B10-b variant, VL N32S (antibody, V domains shown, also called VH: 8B10-b / VL: 8B10-b N32S) VH: QVQLVESGGGVVQPGRSLRLSCAASGFDFNSYGMSWVRQAPGKGLDLVADINSKSYNYATYYADSVKDRFTISRDNSKNTLYLQMNSLRAEDTAVYYCAVHHSDYFEYWGQGTLVTVSS VL: DIQMTQSPSSLSASVGDRVTITCRASQDIYTSLAWYQQKPGKAPKLLIYHASSLQDGVPSRFSGSGSGTDYTLTISSLQPEDFATYYCLQDSEYPPTFGQGTKVEIKR",
    "readout_name": "log10(Kd)",
    "observed_result": 1.28
  },
  {
    "binder": "hu8B10-b variant, VL D56S (antibody, V domains shown, also called VH: 8B10-b / VL: 8B10-b D56S) VH: QVQLVESGGGVVQPGRSLRLSCAASGFDFNSYGMSWVRQAPGKGLDLVADINSKSYNYATYYADSVKDRFTISRDNSKNTLYLQMNSLRAEDTAVYYCAVHHSDYFEYWGQGTLVTVSS VL: DIQMTQSPSSLSASVGDRVTITCRASQDIYTNLAWYQQKPGKAPKLLIYHASSLQSGVPSRFSGSGSGTDYTLTISSLQPEDFATYYCLQDSEYPPTFGQGTKVEIKR",
    "readout_name": "log10(Kd)",
    "observed_result": -0.73
  },
  {
    "binder": "antibody with hu8B10-b VH and hu8B10 VL N31T (antibody, V domains shown, also called VH: hu8B10-b / VL: hu8B10 N31T) VH: QVQLVESGGGVVQPGRSLRLSCAASGFDFNSYGMSWVRQAPGKGLDLVADINSKSYNYATYYADSVKDRFTISRDNSKNTLYLQMNSLRAEDTAVYYCAVHHSDYFEYWGQGTLVTVSS VL: DIQMTQSPSSLSASVGDRVTITCLASEDIYTNLAWYQQKPGKAPKLLIYHASSLQDGVPSRFSGSGSGTDFTLTISSLQPEDFATYYCLQDSEYPPTFGQGTKVEIKR",
    "readout_name": "log10(Kd)",
    "observed_result": 0.73
  },
  {
    "binder": "hu8B10-b variant, VH N57S (antibody, V domains shown, also called VH: 8B10-b N57S / VL: 8B10-b) VH: QVQLVESGGGVVQPGRSLRLSCAASGFDFNSYGMSWVRQAPGKGLDLVADINSKSYSYATYYADSVKDRFTISRDNSKNTLYLQMNSLRAEDTAVYYCAVHHSDYFEYWGQGTLVTVSS VL: DIQMTQSPSSLSASVGDRVTITCRASQDIYTNLAWYQQKPGKAPKLLIYHASSLQDGVPSRFSGSGSGTDYTLTISSLQPEDFATYYCLQDSEYPPTFGQGTKVEIKR",
    "readout_name": "log10(Kd)",
    "observed_result": -0.42
  },
  {
    "binder": "humanized anti-human IL-23R antibody hu8B10-c (antibody, V domains shown, 8B10-b with VL D56S and VH N30S) VH: QVQLVESGGGVVQPGRSLRLSCAASGFDFSSYGMSWVRQAPGKGLDLVADINSKSYNYATYYADSVKDRFTISRDNSKNTLYLQMNSLRAEDTAVYYCAVHHSDYFEYWGQGTLVTVSS VL: DIQMTQSPSSLSASVGDRVTITCRASQDIYTNLAWYQQKPGKAPKLLIYHASSLQSGVPSRFSGSGSGTDYTLTISSLQPEDFATYYCLQDSEYPPTFGQGTKVEIKR",
    "readout_name": "log10(Kd)",
    "observed_result": -0.74
  }
]

Source listed as patent US20110158992A1.
